These entries and their values trace back to a melting point compilation (Tetko et al.).

outcome-measure: melting point

Here are 2 compounds together with their reported answers.
c1csc(-c2nn[nH]n2)c1    201 to 203 °C
CN(C)Cc1ccc(C(=N)N)cc1    124 to 126 °C

Given item Cc1ccc(-c2n[nH]c(=O)c3ccccc23)cc1C , the value recorded as its melting point is 252 to 254 °C

Given item Cc1cc(C(=O)O)c(C)n1-c1ccccc1Br , the value recorded as its melting point is 164 to 166 °C

Given item c1ccc(NCC2CCCCC2)nc1 , the value recorded as its melting point is 91 to 93 °C

Given item O=C(O)c1nccn2ccnc12 , the value recorded as its melting point is 167 to 169 °C

Given item Cc1ccc(CC(=O)NO)cc1 , the value recorded as its melting point is 155 to 157 °C

Given item CCS(=O)(=O)CCn1ccc(N)n1 , the value recorded as its melting point is 53 to 55 °C

Given item Oc1cccc(-c2nccc(Cl)n2)c1 , the value recorded as its melting point is 135 to 137 °C

Given item COc1ccc(NC(=O)c2ccc(N)cc2)cc1 , the value recorded as its melting point is 187 to 189 °C

Given item O=C1CCC(C(F)(F)F)CN1 (stereo not drawn) , the value recorded as its melting point is 141 to 143 °C

Given item CC(C)c1n[nH]c(-c2ccccc2N)n1 , the value recorded as its melting point is 125 to 127 °C

Given item O=C1Nc2ccccc2S(=O)(=O)N1 , the value recorded as its melting point is 301 to 303 °C

Given item CNS(=O)(=O)c1cc(N)ccc1C , the value recorded as its melting point is 133 to 137 °C

Given item C#CCOc1ccc(Br)cc1C=O , the value recorded as its melting point is 94 to 98 °C

Given item CNS(=O)(=O)c1ccc(N)cc1OC , the value recorded as its melting point is 187 to 189 °C

Given item Cc1nc(Cl)c2cc[nH]c2n1 , the value recorded as its melting point is 199 to 201 °C

Given item O=C(O)c1cccc(C(O)C(=O)O)c1 (stereo not drawn) , the value recorded as its melting point is 189 to 191 °C

Given item Cc1cc(N)nc(C(C)C)n1 , the value recorded as its melting point is 196 to 198 °C

Given item O=C1NC(=O)C(Cc2ccccc2)(c2ccccc2)N1 (stereo not drawn) , the value recorded as its melting point is 209 to 211 °C

Given item O=C(O)C=NNc1ccc(F)cc1 , the value recorded as its melting point is 87 to 89 °C

Given item Nc1ccc(Cl)cc1-c1nc(C2CCCC2)no1 , the value recorded as its melting point is 107 to 109 °C

Given item C=CCNc1nc(-c2ccccc2)cs1 , the value recorded as its melting point is 74 to 76 °C
